Tested on: A2780
Assay: Anti-proliferative effect (CellTiter-Glo, 72 h), A2780
Type: cell-based
Conditions: A2780 cells, median, read-out: IC50 antiproliferation assay A2780 [M] (median)
endpoint: IC50 (M)

Record excerpt, results attached:
{"compound": "CC(C)OCc1nn(C)c2c1-c1cccc3c(CCCOc4cccc5ccccc45)c(C(=O)O)n(c13)CCCCN(C)C2 (single isomer, unassigned)", "endpoint": "IC50", "readout_number": "1.39e-05"}
{"compound": "COCc1c2c(nn1C)COCCCCn1c(C(=O)O)c(CCCOc3cccc4ccccc34)c3cccc-2c31 (single isomer, unassigned; enantiomer 2)", "endpoint": "IC50", "readout_number": "2.71e-05"}
{"compound": "Cc1cc(OCCCc2c(C(=O)O)n3c4c(cccc24)-c2c(C)nn(C)c2COCCCC3)cc(C)c1Cl (single isomer, unassigned; enantiomer 2)", "endpoint": "IC50", "readout_number": "1.58e-05"}

A: Cn1nc(COc2ccc(N3CCN(S(C)(=O)=O)CC3)cc2)c2c1COCCCCn1c(C(=O)O)c(CCCOc3cccc4ccccc34)c3cccc-2c31 (single isomer, unassigned; enantiomer 2) [Example 1-10]
B: COc1ccccc1-c1ncc(OCc2nn(C)c3c2-c2cccc4c(CCCOc5cccc6ccccc56)c(C(=O)O)n(c24)CCCN(C)C3)cn1 (single isomer, unassigned)
Which entry has a larger number for IC50, A or B ? Please identify the chosen entry by its label.
A
(A: 1.19e-05 M, B: 6.23e-06 M)

I: CN1CCCn2c(C(=O)O)c(CCCOc3cccc4ccccc34)c3cccc(c32)-c2c(CCN3CCOCC3)nn(C)c2C1 (single isomer, unassigned; enantiomer 1) [Example 125]
II: CCn1nc(C2CC2)c2c1COCCCCn1c(C(=O)O)c(CCCOc3cccc4ccccc34)c3cccc-2c31 (single isomer, unassigned; enantiomer 2)
Which entry has a larger number for IC50, I or II ? Please identify the chosen entry by its label.
II
(II: 1.98e-05 M, I: 8.42e-06 M)

P: Cc1ccc2c(CCCOc3cccc4ccccc34)c(C(=O)O)n3c2c1-c1c(nn(C)c1C)CN(C)CCC3 (single isomer, unassigned; enantiomer 2)
Q: CCc1nn(C)c2c1-c1c(C)ccc3c(C(C)CCOc4cccc5ccccc45)c(C(=O)O)n(c13)CCCCOC2 (single isomer, unassigned) [Example 272]
// task: argmin of IC50 over [ P , Q ] Please identify the chosen entry by its label.
Q
(Q: 7.15e-06 M, P: 1.3e-05 M)

A: Cc1nn(CCN2CCOCC2)c2c1-c1cccc3c(CCCOc4cccc5ccccc45)c(C(=O)O)n(c13)CCCCOC2 (single isomer, unassigned; enantiomer 2)
B: O=C(O)c1c(CCCOc2cccc3ccccc23)c2cccc3c2n1CCCCOCc1nn2c(c1-3)OCCC2 (single isomer, unassigned) [Example 249]
Which entry has a larger number for IC50, A or B ? Please identify the chosen entry by its label.
A
(A: 2.84e-05 M, B: 1.82e-05 M)

1: CCCc1nn(C)c2c1-c1c(C)ccc3c(CCCOc4cccc5ccccc45)c(C(=O)O)n(c13)CCCN(C)C2 (single isomer, unassigned; enantiomer 2)
2: CCc1c2c(nn1C)COCCCCn1c(C(=O)O)c(CCCOc3cccc4ccccc34)c3ccc(C)c-2c31 (single isomer, unassigned; enantiomer 2)
3: Cc1nn(C)c2c1-c1cccc3c(CCCOc4cccc5c4CCCC5)c(C(=O)O)n(c13)CCCCOC2 (single isomer, unassigned; enantiomer 1) [Example 007]
List by increasing IC50. Please respond by ranking the labels in the order requested.
1, 2, 3
(1: 1.49e-05 M, 2: 2.25e-05 M, 3: 3.25e-05 M)

The reported numbers originate from patent US10981932B2.
